# Test system: HT29 colon
# assay_text: NCI tumour cell line growth inhibition, 48 h; in the data active means GI50 below about 0.43 µM; inactive means the rest
Labels: active, inactive

compound	group
Cc1csc(/C=C/C(=O)c2nnn(-c3ccnc4c(C(F)(F)F)cccc34)c2C)c1	inactive
C#Cc1c(/C=C/C(=O)OCC)ccc2ccccc12	inactive
C#CCSc1cc(Cl)c(C)cc1S(=O)(=O)Nc1nc2ccccc2o1	inactive
CCN(CC)CCCNCc1cc(-c2ccccc2)nc2ccccc12	inactive
[N-]=[N+]=NCCCCCC(=O)OC(C(=O)c1ccccc1)c1cccc(OCC(=O)NCCOCCOCCNC(=O)CCCC[C@@H]2SC[C@@H]3NC(=O)N[C@@H]32)c1 (stereo partly drawn)	inactive
O=C(Cc1ccc(F)c(F)c1)Nc1cc(C2(C(F)(F)F)CC2)nn1Cc1ccccc1	inactive
N=c1ccn(O)cc1/C=C1/C(=O)Nc2ccccc21	inactive
O=Nc1ccc(NO)c2ccccc12	inactive
CS(=O)(=O)CCc1cccc(C(=O)c2cnn(-c3ccc(F)cc3)c2N)c1	inactive
O=C(COc1cc(O)c2c(=O)cc(-c3ccccc3)oc2c1)Nc1ccccc1C(F)(F)F	inactive
COc1cccc(NC(=O)c2sc3nc(C)c(C(O)c4ccccc4)cc3c2N)c1 (stereo not drawn)	active
CCC(=C/[C@H](C)C/C=C/C(C)=C/[C@@H](C)C(=O)[C@@H](C)[C@H](O)[C@@H](C)CC)/C=C/[C@@H]1OC(=O)C=C[C@H]1C	active
CC(C)=CCC[C@](C)(O)[C@H]1CC[C@]2(C)[C@@H]1CC[C@@H]1[C@@]3(C)CC/C(=N/O)C(C)(C)[C@@H]3CC[C@]12C	inactive

* * *

# Test system: SF-268 CNS
# assay_text: NCI tumour cell line growth inhibition, 48 h
Listed compounds paired with reported TGI
assay_readout: TGI

compound	assay_readout	result_value
OC(c1ccc(C(F)(F)F)cc1)C(F)(F)c1nc2ccccc2o1 (stereo not drawn)	TGI	> 100 µM
CCN(CC)c1ccc(C(O)C2=CC(=O)c3ccccc3C2=O)cc1 (stereo not drawn)	TGI	> 100 µM
O=c1[nH]nc(Cc2c[nH]c3ccccc23)o1	TGI	> 100 µM
CC(=O)OC(C)(C)/C(C)=C/C(=O)O[C@H]1C(=O)O[C@@H]2C[C@H]3[C@H](C)C(=O)C(O[C@@H]4O[C@H](CO)[C@@H](O)[C@H](O)[C@H]4O)=C[C@]3(C)[C@H]3[C@@H](O)[C@H](O)[C@@]4(C(=O)O)OC[C@]32[C@@H]14	TGI	> 100 µM
Oc1ccc(-c2nc3ccccc3s2)cc1CN(Cc1ccccn1)Cc1ccccn1	TGI	16 µM
O=C(COc1cc(O)c2c(=O)cc(-c3ccccc3)oc2c1)Nc1ccccc1C(F)(F)F	TGI	26.1 µM
CCOC(=O)C1=NN(c2ccc([N+](=O)[O-])cc2)[C@@]2(C)C[C@]3(c4ccccc4)N(c4ccc([N+](=O)[O-])cc4)N=C(C(=O)OCC)N3c3ccccc3N12	TGI	> 100 µM
Cc1cccc(C(C)(C)C)c1NC(=O)CC1C(=O)Nc2ccccc2S1(=O)=O (stereo not drawn)	TGI	25.5 µM
O=C(Nc1ccc2[nH]c(C(=O)N3CC(CCl)c4c3cc([N+](=O)[O-])c3ccccc43)cc2c1)Nc1ccc2[nH]c(C(=O)N3CC(CCl)c4c3cc([N+](=O)[O-])c3ccccc43)cc2c1 (stereo not drawn)	TGI	> 100 µM
CC(C)([NH-])CO.CC(C)([NH-])CO.[Cl][Cd][Cl]	TGI	35.3 µM
O=C(CN1CCOCC1)c1ccc2c(c1)oc(=O)n2CCN1CCOCC1	TGI	> 100 µM
COc1ccc2ccccc2c1C1NC(=O)c2ccccc2N1 (stereo not drawn)	TGI	> 100 µM
Fc1ccc2c(c1)c(-c1nc(-c3c[nH]c4ncccc34)cs1)cn2CCCCN1CCCCC1	TGI	3.22 µM
C/C(CC(O)(/C=N/O)c1ccccc1)=N/O (stereo not drawn)	TGI	> 100 µM
CCOC(=O)C1c2[nH]c3ccccc3c2CCN1C(=O)c1ccc(OC)o1 (stereo not drawn)	TGI	> 10 µM
O=C(Nc1ccc(Cl)c(Cl)c1)Nc1c(Oc2ccc(Cl)c(Cl)c2)ccc(Cl)c1S(=O)(=O)O	TGI	> 100 µM
CC(C)N=C(N)NC#N	TGI	> 100 µM
CC(=O)OCC1OC(Nn2c(=O)[nH]c3ccccc3c2=O)C(OC(C)=O)C(OC(C)=O)C1OC(C)=O (stereo not drawn)	TGI	> 100 µM
